Where do the numbers come from? From patent US9145354B2.

# target: full length NS3/4a (Hepatitis C virus genotype 1b (isolate BK) (HCV), UniProt P26663)
# Sequence (P26663 1027-1657): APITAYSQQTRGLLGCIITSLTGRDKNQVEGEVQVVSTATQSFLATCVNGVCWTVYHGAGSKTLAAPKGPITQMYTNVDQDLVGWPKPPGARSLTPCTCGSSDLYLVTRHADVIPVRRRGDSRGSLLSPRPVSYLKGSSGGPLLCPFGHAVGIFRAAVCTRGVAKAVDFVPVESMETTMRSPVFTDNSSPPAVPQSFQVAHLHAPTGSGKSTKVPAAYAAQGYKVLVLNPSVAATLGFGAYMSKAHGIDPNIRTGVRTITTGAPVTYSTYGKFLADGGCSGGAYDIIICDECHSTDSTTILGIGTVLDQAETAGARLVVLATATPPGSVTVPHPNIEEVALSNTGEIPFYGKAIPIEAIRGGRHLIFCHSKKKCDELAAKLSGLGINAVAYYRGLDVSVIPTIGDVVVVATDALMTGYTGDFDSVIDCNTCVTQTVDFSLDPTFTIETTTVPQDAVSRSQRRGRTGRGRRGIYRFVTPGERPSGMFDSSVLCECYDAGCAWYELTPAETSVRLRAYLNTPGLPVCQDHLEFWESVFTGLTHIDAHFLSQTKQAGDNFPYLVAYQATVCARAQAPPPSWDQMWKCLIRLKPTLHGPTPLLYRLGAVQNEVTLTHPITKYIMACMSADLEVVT
# assay-comment: NS3 Protease Assay (Example A), FRET-based
# Format: biochemical
# stated-conditions: HCV NS3 protease assay, full length NS3/4a; read-out: Assay A IC50 (μM) average
Listed here: items and their measured log10 of IC50.
readout: log10 of IC50 (log10 of the value in µM)

{"columns": ["structure-notation", "log10 of IC50"],
 "data": [
  ["CC[C@@H](N[C@H](C)CC(N)=O)c1ccc(Cl)c(C(=O)c2ccc(NC)nc2)c1F", 0.49],
  ["CC[C@@H](N[C@H](C)CC(N)=O)c1ccc(Cl)c(C(=O)c2cccc(C(=O)O)c2)c1F", 0.51],
  ["CC[C@@H](N[C@@H](C)CC(N)=O)c1ccc(Cl)c(C(=O)c2ccc(C#N)c(OC)c2)c1F", -0.89],
  ["CC[C@@H](N[C@H](C)CC(N)=O)c1ccc(Cl)c(C(=O)c2ccc(C#N)nc2)c1F", -0.33],
  ["CC[C@@H](NCC(C)(C)C(N)=O)c1ccc(Cl)c(C(=O)c2cccnc2)c1F", 0.20],
  ["C[C@@H](CC(N)=O)N[C@@H](c1ccc(Cl)c(C(=O)c2ccc(N)c(Cl)c2)c1F)C1CC1", -0.80],
  ["Cc1cc(C(=O)c2c(Cl)ccc([C@H](N[C@H](C)CC(N)=O)C3CC3)c2F)ccc1N", -0.57],
  ["CC[C@@H](N)c1ccc(Cl)c(C(=O)c2ccc(F)cc2)c1F", -0.72]
]}
